Tested on: BT-549 breast
Assay: NCI tumour cell line growth inhibition, 48 h
Quantity Name: TGI

Take a look at these entries with their results.
- Molecule: "CC(=O)OC1COC(N2c3ccccc3[C@@H]3CCc4c([nH]c5ccccc45)[C@@H]32)C(OC(C)=O)C1OC(C)=O (mixture of isomers)"
  Measured Result: "> 100 µM"
- Molecule: "CC(Br)CN(CC(C)Br)c1ccc2c(c1)Cc1ccccc1-2 (stereo not given)"
  Measured Result: "35.1 µM"
- Molecule: "Nc1ccc2c(SCC(=O)Nc3ccccc3-c3ccccc3NC(=O)CSc3c4ccccc4nc4cc(N)ccc34)c3ccccc3nc2c1"
  Measured Result: "85.1 µM"

State the recorded TGI for every item in the following list.
1. Fc1cccc(F)c1C1SCc2nc3cc(Cl)ccc3n21 (stereo not given)
2. Cc1ccc(-c2cc(C(Cl)Cl)on2)cc1
3. COc1ccc(CNC(=O)c2ccc(-c3cc(-c4nnc(C)o4)ccc3C)cc2)cc1
4. COc1ccc2nc3cc(Cl)ccc3c(Nc3ccc(O)c(CN4CCCC4)c3)c2c1
5. O=C1CCCC2=C1CC1=C(CCCC1=O)N2c1ccc(-c2ccccc2)cc1

["> 45.6 µM", "> 100 µM", "> 25 µM", "28.1 µM", "> 100 µM"]

Answer for every listed entry: what is its TGI? The entries follow.
1. Cc1ccc(S(=O)(=O)N2CCc3cc(O)c([N+](=O)[O-])cc32)cc1
2. COc1ccc(-c2nc(/C=N/Nc3cc(C)nc4ccc(Br)cc34)c(C)o2)cc1
3. C=CCN(c1cc(OC)c2[nH]c(C(=O)O)c(C)c2c1[N+](=O)[O-])S(C)(=O)=O
4. N#CC1=C(N)NC(=S)C(C#N)C12Nc1ccccc1S2 (stereo not given)
5. O=c1cccc2n1CC1CNCC2C1 (stereo not given)
6. O=c1[nH]nc(-c2ccc([N+](=O)[O-])cc2)[nH]1
7. COc1ccc(-c2cn(-c3cc(OC)c(OC)c(OC)c3)c(=O)n2-c2ccccc2)cc1
8. NC1(C(=O)O)CSSC1

> 100 µM
3.11 µM
> 100 µM
49.1 µM
> 100 µM
> 100 µM
> 100 µM
40.2 µM

Would you be so kind as to report TGI for each listed record?
1. Oc1ccc(C[C@@H]2CN[C@H](Cc3ccc(O)c(Br)c3)CN2)cc1
2. CCC(C)C(NC(=O)C(CCCC[N+](=N)N)NC(=O)C(CCCC[N+](=N)N)NC(=O)c1ccc(OC)cc1)C(=O)NC(CCCC[N+](=N)N)C(=O)N1CCCC1C(=O)NC(CCCCN)C(=O)NC(CC(C)C)C(N)=O (stereo not given)
3. CN1C2CCC1C(CO)C(=O)C2 (stereo not given)
4. CCCCCCCCCCCCCCCCCCNC(=O)[C@H]1CSC(c2ccc(F)c(OC)c2)N1 (stereo not given in full)

> 100 µM
> 100 µM
> 100 µM
1.85 µM
